// data source = patent US12257247B2

- EXPERIMENTAL TARGET: VAV1 (Homo sapiens, UniProt P15498+Q96SW2)
- Construct: A heterozygous VAV1 C-terminal HiBiT knock-in pool was generated at Monte Rosa Therapeutics from a clonal Jurkat cell; endogenous in cells; host or cells: Jurkat clone stably expressing LgBiT, homozygous GSPT1-G575N; heterozygous VAV1-HiBiT knock-in pool
- PROCEDURE SUMMARY: VAV1 degradation activity, VAV1-HiBiT knock-in Jurkat luminescence assay (Example A, Table 1)
- Type: cell-based
- EXPERIMENTAL CONDITIONS: Jurkat, VAV1-HiBiT knock-in Jurkat cells, luminescence read at 6 and 24 hours; read-out: VAV1 Dmax %, class
OBSERVATION TYPE: Dmax

Use these answered entries as a reference point.
{"columns": ["MOLECULE", "RESULT"],
 "data": [
  ["CC1(C)CN(c2ccc(-c3cccc(C4CCC(=O)NC4=O)c3Cl)cc2)C(=O)CO1 (stereo not shown) [Compound 311]", "> 90%"],
  ["O=C1CCC(c2cccc(-c3ccc(OCCN4CCCC4)cc3)c2Cl)C(=O)N1 (stereo not shown) [Compound 136]", "< 60%"],
  ["Cn1ccc(OCc2ccc(-c3cccc(C4CCC(=O)NC4=O)c3Cl)cc2)n1 (stereo not shown) [Compound 160]", "> 90%"]
]}

We next turn to a different molecule, shown below.
Just so you know, measured Dmax for CC1(C)CCC(=O)N1c1ccc(-c2cccc(C3CCC(=O)NC3=O)c2Cl)cc1 (stereo not shown) [Compound 413] came out at > 90%

* * *

- EXPERIMENTAL TARGET: VAV1 (Homo sapiens, UniProt P15498+Q96SW2)
- Construct: A heterozygous VAV1 C-terminal HiBiT knock-in pool was generated at Monte Rosa Therapeutics from a clonal Jurkat cell; endogenous in cells; host or cells: Jurkat clone stably expressing LgBiT, homozygous GSPT1-G575N; heterozygous VAV1-HiBiT knock-in pool
- PROCEDURE SUMMARY: VAV1 degradation activity, VAV1-HiBiT knock-in Jurkat luminescence assay (Example A, Table 1)
- Type: cell-based
- EXPERIMENTAL CONDITIONS: Jurkat, VAV1-HiBiT knock-in Jurkat cells, luminescence read at 6 and 24 hours; read-out: VAV1 Dmax %
# Dmax annotations
# output: bare number, implied unit %

Use these answered entries as a reference point.
{"columns": ["MOLECULE", "Dmax [%]"],
 "data": [
  ["O=C1CCC(c2cccc(-c3ccc(CN4Cc5cccnc5C4=O)cc3)c2Cl)C(=O)N1 (centres unmarked)", 91.6],
  ["O=C1CCC(c2cccc(-c3ccc(CCn4ccccc4=O)cc3)c2Cl)C(=O)N1 (centres unmarked)", 89.3],
  ["Cc1cccc(=O)n1-c1ccc(-c2cccc(C3CCC(=O)NC3=O)c2Cl)cc1 (centres unmarked)", 97.5],
  ["O=C1CC[C@H](c2cccc(-c3ccc(Cn4ccccc4=O)cc3)c2Cl)C(=O)N1", 88.7],
  ["O=C1CCC(c2cccc(-c3ccc(CN4CCCOC4=O)nc3)c2Cl)C(=O)N1 (centres unmarked)", 23.5],
  ["O=C1CCC(c2cccc(-c3ccc(N4C(=O)CCC45COC5)cc3)c2Cl)C(=O)N1 (centres unmarked)", 91.8]
]}

Just so you know, measured Dmax for O=C1CCC(c2cccc(-c3ccc(-n4ccccc4=O)cc3)c2F)C(=O)N1 (centres unmarked) came out at 75.8

Just so you know, measured Dmax for O=C1CCC(c2cccc(-c3ccc(N4C(=O)OCC45CC5)nc3)c2Cl)C(=O)N1 (centres unmarked) came out at 86

Just so you know, measured Dmax for O=C1CCC(c2cccc(-c3ccc(N4C(=O)CCC45CC5)cc3)c2Cl)C(=O)N1 (centres unmarked) came out at 97.7

Just so you know, measured Dmax for O=C1CCC(c2cccc(-c3ccc(N4C(=O)OCCC4C(F)(F)F)cc3)c2Cl)C(=O)N1 (centres unmarked) came out at 93
